test system: LOX IMVI; test: NCI tumour cell line growth inhibition, 48 h
Activity calls are given as the source filed them. Cut-off read from the data, not from the text of the source: active = GI50 up to about 1.1 µM and inactive = higher.
Could you please pick one outcome from this set? active, inactive

CCOC(=O)CCC(NC(=O)OCc1ccccc1)C(=O)NC(CCC(=O)OCC)C(=O)NC(CCC(=O)OCC)C(=O)NC(CCC(=O)OCC)C(=O)NC(CCC(=O)OCC)C(=O)OCC (stereo not drawn) ... inactive
C/C(=C\c1csc(C)n1)[C@@H]1C[C@@H]2O[C@]2(C)CCC[C@H](C)[C@H](O)[C@@H](C)C(=O)C(C)(C)[C@@H](O)CC(=O)O1 ... active
C=CCN(c1cc(OCc2ccccc2)c2c(c1)c(C)cn2S(=O)(=O)c1ccccc1)S(C)(=O)=O ... inactive

Q: // param item: "N#CC1(C#N)C(C#N)(C#N)C1(C#N)C(N)=O" ; yields the recorded call
Result: inactive

Q: // param item: "CC1(C)CC(=O)C(=CNC(=S)c2ccccc2)C(=O)C1" ; yields the recorded call
Result: inactive

====

test system: CCRF-CEM; test: NCI tumour cell line growth inhibition, 48 h
The source made the active and inactive calls. Rule as the data show it: active = GI50 up to about 1.1 µM and inactive = higher.
quantity.measured: GI50

CCOCCOCCOCc1nc(C#N)c(N)o1 ... > 100 µM (inactive)
CC(C)(CC(=O)Nc1ccccc1)C(=O)O ... > 100 µM (inactive)
N#CCc1c(F)c(F)c(F)c(F)c1F ... > 100 µM (inactive)
C[C@@](Br)(C(=O)O)[C@H](Br)C(=O)O ... > 100 µM (inactive)
O/N=C(/CC(O)(C(F)(F)F)C(F)(F)F)c1ccccc1 ... > 10 µM (inactive)
COc1ccc(/N=C(\C)c2ccncc2)cc1 ... > 100 µM (inactive)
CCOC(=O)c1c(N)sc2c1C(C(=O)OCC)CCC2 (centres undefined) ... > 100 µM (inactive)
O=c1c2nc[nH]c2n(-c2ccccc2)c(=S)n1-c1ccccc1 ... > 100 µM (inactive)

Q: What value of measured GI50 is listed for COc1cc2c3c(c1O)-c1c(ccc(OC)c1OC)CC3N(C)CC2 (centres undefined) ?
Result: 91.4 µM (inactive)

Q: What value of measured GI50 is listed for "CCCC#CCOC(=O)c1cc([N+](=O)[O-])cc([N+](=O)[O-])c1" ?
Result: > 100 µM (inactive)

Q: What value of measured GI50 is listed for CON(C)C(=O)C1CCCO1 (centres undefined) ?
Result: > 100 µM (inactive)

Q: What value of measured GI50 is listed for CCOC(=O)C(NCc1ccc2c(c1)OCO2)(NC(=O)c1ccccc1)C(F)(F)F (centres undefined) ?
Result: 19.5 µM (inactive)

Q: What value of measured GI50 is listed for "COc1cc(C=C2C(=O)OC(C)(C)OC2=O)cc(OC)c1OC" ?
Result: > 100 µM (inactive)

====

system: KM12; assay: NCI tumour cell line growth inhibition, 48 h
The source made the active and inactive calls. Cut-off read from the data, not from the text of the source: active = GI50 up to about 1.1 µM and inactive = higher. Peptide text beside a SMILES is read from it. * marks the point of attachment. Boc = CC(C)(C)OC(=O)*
quantity.measured: GI50

Cc1ccc(Cl)c2c(=O)cc(-c3ccccc3)[nH]c12 ... 25.4 µM (inactive)
c1ccc2cc(C3NCCc4nc[nH]c43)ccc2c1 (centres undefined) ... 17.3 µM (inactive)
CCOC(=O)c1sc2c(c1OC(=O)c1ccccc1)c(=O)n(-c1ccccc1)c(=S)n2-c1ccccc1 ... 40.6 µM (inactive)
CCc1cccc(C)c1NC(C)=O ... > 100 µM (inactive)
COC(=O)C1=C(C(=O)OC)C(C(=O)OC)C(C(=O)OC)C(C(=O)OC)(C(=O)OC)C(C(=O)OC)=C1C(=O)OC (centres undefined) ... 17.1 µM (inactive)

Q: Give KM12 GI50 for O=C1CC=C2C3CC4N(CCC45c4ccccc4N1C25)C/C3=C\CO (centres undefined)
Result: > 100 µM (inactive)

Q: Give KM12 GI50 for "COc1ccc(C(=O)/C=C/c2ccc(OCC(=O)N3CCN(c4ccccc4)CC3)cc2)cc1"
Result: > 76.4 µM (inactive)

Q: Give KM12 GI50 for CC(NC(=O)OC(C)(C)C)C(=O)NC(Cc1ccccc1)C(=O)NCC(=O)O (stereo not drawn) (Boc-Ala-Phe-Gly-OH; configuration not given here)
Result: > 100 µM (inactive)

Q: Give KM12 GI50 for "N#C/C(=C1/Sc2c(nc[nH]c2=O)N1c1ccccc1)c1nc2ccccc2[nH]1"
Result: > 100 µM (inactive)

====

tested on: OVCAR-4; test: NCI tumour cell line growth inhibition, 48 h
Activity calls are given as the source filed them. Cut-off read from the data, not from the text of the source: active = GI50 up to about 1.1 µM and inactive = higher.
Could you please pick one outcome from this set? Y = active, N = inactive

Example entries begin here.
COc1cc2c3c(c1O)-c1c(ccc(OC)c1OC)CC3N(C)CC2 (stereo unspecified) ... N
Cc1cc2cc3c(C)cc(=O)oc3c(C)c2o1 ... N
CCc1cccc(C)c1NC(C)=O ... N

Q: // param item: C/C=C\C(CC(=O)NCCC1CN(S(=O)(=O)c2ccc(C)cc2)c2ccccc21)CC(=O)OC (stereo unspecified) ; yields the recorded call
Result: N

Q: // param item: "Cc1nc2[nH]ccn2c(=O)c1CCCl" ; yields the recorded call
Result: N

Q: // param item: c1ccc(CN2CCCCC(Sc3ccccc3)CC2)cc1 (stereo unspecified) ; yields the recorded call
Result: N

Q: // param item: "c1ccc(C2=NCCc3cc4c(cc32)OCO4)cc1" ; yields the recorded call
Result: N

Q: // param item: CC(=O)OCC1OC(n2c(C)c(C(C)=O)c(-c3cccc4ccccc34)c(C#N)c2=S)C(OC(C)=O)C(OC(C)=O)C1OC(C)=O (stereo unspecified) ; yields the recorded call
Result: N

Q: // param item: NC(=O)N/N=C(/c1nc2ccc([N+](=O)[O-])cc2nc1O)C(O)c1ccco1 (stereo unspecified) ; yields the recorded call
Result: N

====

test system: SK-OV-3; assay: NCI tumour cell line growth inhibition, 48 h
Calls of active or inactive are those of the source. Cut-off read from the data, not from the text of the source: active = GI50 up to about 1.1 µM and inactive = higher.
Reported GI50 is given for each of the following compounds.

Check out these entries, answers already filled in.
CCC(=O)CC(=O)CCC(=O)Nc1cc(C)ccc1C ... > 100 µM (inactive)
CC(C)(C)OC(=O)NCCC1SC2C=CC1C2 (stereo unspecified) ... > 100 µM (inactive)
N#Cc1c(C#N)c(-c2ccccc2)n(-c2ccccc2)c1N ... 83.6 µM (inactive)
CC1=CC(=O)C2=C(C)CCC3C(C)C(=O)OC3C12 (stereo unspecified) ... > 100 µM (inactive)
COc1c(O)ccc(/C=N/NC(=S)NCOCCOC(C)=O)c1OC ... > 100 µM (inactive)

Please examine the following record next.
Q: What value of measured GI50 is listed for C[C@]12CC(C#N)C(=O)C(O)=C1CC[C@@H]1C2CC[C@@]2(C)C1CC[C@@H]2O (stereo partly specified) ?
Result: 33.2 µM (inactive)

====

tested on: NCI-H522; assay: NCI tumour cell line growth inhibition, 48 h
Active and inactive are the calls of the source. Cut-off read from the data, not from the text of the source: active = GI50 up to about 1.1 µM and inactive = higher.
Could you please pick one outcome from this set? active, inactive

O=[N+]([O-])c1cccnc1NCC1(CO)CCCC1 ... inactive
C[C@@H]1CC[C@@]2(C)C(C(=O)O)=CCCC2[C@@]1(C)CC(=O)c1ccoc1 (stereo partly specified) ... inactive
CSc1c(CC(=O)Nc2ccc(Cl)cc2)n(Cc2ccccc2)c2ccccc12 ... inactive
CCCCOC(=O)C1C(c2ccc(Cl)cc2)NC(c2ccc(Cl)cc2)C(C(=O)OCCCC)S1(=O)=O (stereo unspecified) ... inactive

Q: // param item: "CCOC(=O)c1[nH]c(Br)c(-c2ccc(OC)c(OC)c2)c1Br" ; yields the recorded call
Result: active

Q: // param item: CCN(CC)c1ccc(C2NC(=O)c3ccccc3N2)cc1 (stereo unspecified) ; yields the recorded call
Result: inactive

Q: // param item: "COc1cc(/C=C2\CCC/C(=C\c3cc(OC)c(O)c(OC)c3)C2=O)cc(OC)c1O" ; yields the recorded call
Result: inactive

Q: // param item: "COCc1nc2c(OC)c(-c3nc4ccc(N5CCN(C)CC5)cc4[nH]3)cc(OC)c2[nH]1" ; yields the recorded call
Result: inactive

Q: // param item: Cc1ccccc1C1OC(=O)c2ccccc21 (stereo unspecified) ; yields the recorded call
Result: inactive

Q: // param item: CC(=O)OCC1OC(n2c(C)c(C(C)=O)c(-c3cccc4ccccc34)c(C#N)c2=S)C(OC(C)=O)C(OC(C)=O)C1OC(C)=O (stereo unspecified) ; yields the recorded call
Result: inactive

====

system: SK-MEL-5; assay: NCI tumour cell line growth inhibition, 48 h
The source made the active and inactive calls. No stated cut-off is given here; in the data, active = GI50 up to about 1.1 µM and inactive = higher.
quantity.measured: GI50

COc1cc(/C=C2\CCC/C(=C\c3cc(OC)c(O)c(OC)c3)C2=O)cc(OC)c1O ... 2.28 µM (inactive)

Q: What value of measured GI50 is listed for N#CC(c1cc(Cl)ncn1)c1nc2cc(C(F)(F)F)ccc2s1 (stereo not given) ?
Result: 9.57 µM (inactive)

Q: What value of measured GI50 is listed for "C[C@H](O)C(=O)SC[C@H](NC(=O)CC[C@@H](N)C(=O)O)C(=O)NCC(=O)O" ?
Result: > 100 µM (inactive)

Q: What value of measured GI50 is listed for "COCc1nc2c(OC)c(-c3nc4ccc(N5CCN(C)CC5)cc4[nH]3)cc(OC)c2[nH]1" ?
Result: 22.2 µM (inactive)

Q: What value of measured GI50 is listed for N#C[BH2-][n+]1cn(C2CC(O)C(COP(=O)(O)OC3CC(n4c[n+]([BH2-]C#N)c5c(=O)[nH]c(N)nc54)OC3CO)O2)c2nc(N)[nH]c(=O)c21 (stereo not given) ?
Result: > 100 µM (inactive)

Q: What value of measured GI50 is listed for CC(=O)CCN1CC2CN=NC2(C#N)C1 (stereo not given) ?
Result: > 100 µM (inactive)

Q: What value of measured GI50 is listed for "CCOC(=O)c1nc2cc(C(F)(F)F)ccc2nc1Nc1ccc(OC)cc1" ?
Result: > 100 µM (inactive)

Q: What value of measured GI50 is listed for "N#Cc1c(C#N)c(-c2ccccc2)n(-c2ccccc2)c1N" ?
Result: 18.9 µM (inactive)

Q: What value of measured GI50 is listed for "CCc1ccc(Nc2ccc([N+](=O)[O-])cc2[N+](=O)[O-])cc1" ?
Result: 38.6 µM (inactive)

Q: What value of measured GI50 is listed for "Cc1nc2[nH]ccn2c(=O)c1CCCl" ?
Result: 17.1 µM (inactive)
